Data provenance is patent US20220144956A1.

target: human TGFßRII (antigen of the Octet experiments) (human, UniProt P37173 23-166); experiment: BLI (Octet)
Sequence (P37173 23-166): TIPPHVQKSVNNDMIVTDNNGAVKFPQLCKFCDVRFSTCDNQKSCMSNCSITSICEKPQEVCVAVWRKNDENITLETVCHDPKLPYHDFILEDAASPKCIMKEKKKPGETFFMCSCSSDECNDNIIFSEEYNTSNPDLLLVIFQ
measured-property: Kd (nM)
All answers are understood in nM, so give the number only.

For orientation, consider the following solved cases.
[[record]]
binder = "H1.24 L1 XENP34480 (antibody, V domains shown) VH: QLQVQESGPGLVKPSETLSLTCTVSGGSISNSHFSWGWIRQPPGKGLEWIGSFYYGEKTYYNPSLKSRATISIDTSKSQFSLKLSSVTAADTAVYYCPRGPTMIRGVIDSWGQGTLVTVSS VL: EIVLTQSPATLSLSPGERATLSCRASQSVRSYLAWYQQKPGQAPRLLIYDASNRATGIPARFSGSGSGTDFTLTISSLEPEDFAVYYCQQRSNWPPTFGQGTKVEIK"
reported_value = 0.199

[[record]]
binder = "H1.32 L1 XENP34488 (antibody, V domains shown) VH: QLQVQESGPGLVKPSETLSLTCTVSGGSISNSYFSMGWIRQPPGKGLEWIGSFYYGEKTYYNPSLKSRATISIDTSKSQFSLKLSSVTAADTAVYYCPRGPTMIRGVIDSWGQGTLVTVSS VL: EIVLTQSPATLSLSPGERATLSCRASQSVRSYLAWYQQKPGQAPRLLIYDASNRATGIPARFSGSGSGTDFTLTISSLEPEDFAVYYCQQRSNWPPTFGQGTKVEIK"
reported_value = 2.47

[[record]]
binder = "H1.21 L1 XENP34477 (antibody, V domains shown) VH: QLQVQESGPGLVKPSETLSLTCTVSGGSISNSAFSWGWIRQPPGKGLEWIGSFYYGEKTYYNPSLKSRATISIDTSKSQFSLKLSSVTAADTAVYYCPRGPTMIRGVIDSWGQGTLVTVSS VL: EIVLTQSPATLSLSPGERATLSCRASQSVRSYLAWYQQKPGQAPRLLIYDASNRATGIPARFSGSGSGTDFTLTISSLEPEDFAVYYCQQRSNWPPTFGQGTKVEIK"
reported_value = 0.455


Per the record, H1.27 L1 XENP34483 (antibody, V domains shown) VH: QLQVQESGPGLVKPSETLSLTCTVSGGSISNSYYSWGWIRQPPGKGLEWIGSFYYGEKTYYNPSLKSRATISIDTSKSQFSLKLSSVTAADTAVYYCPRGPTMIRGVIDSWGQGTLVTVSS VL: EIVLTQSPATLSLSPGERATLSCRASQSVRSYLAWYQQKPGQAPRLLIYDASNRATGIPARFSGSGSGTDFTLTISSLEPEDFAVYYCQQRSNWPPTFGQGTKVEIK has Kd of 0.809

Per the record, H1.6 L1 XENP34462 (antibody, V domains shown) VH: QLQVQESGPGLVKPSQTLSLTCTVSGGSISNSYFSWGWIRQPPGKGLEWIGSFYYGEKTYYNPSLKSRATISIDTSKSQFSLKLSSVTAADTAVYYCPRGPTMIRGVIDSWGQGTLVTVSS VL: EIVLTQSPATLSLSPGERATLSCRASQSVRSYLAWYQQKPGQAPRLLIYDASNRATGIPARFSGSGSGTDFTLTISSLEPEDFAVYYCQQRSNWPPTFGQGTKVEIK has Kd of 0.0242
